# experimentalProtocol: Terminal elimination half life in ICR mouse at 2 mg/kg, iv measured upto 24 hrs by LC-MS/MS analysis
# Assay type: ADME, organism-based
# statedConditions: in vivo, read-out: beta t1/2 (converted)
I'd be grateful if you could share measured half-life for these entries.
Give bare numbers, in min.

Batch request: half-life for each of the following molecules.
1. COc1nn2cc(-c3cc4ccc5c(c4o3)OCC(COc3ccc(F)cc3)O5)nc2s1 (configuration not stated)
2. COc1nn2cc(-c3cc4ccc5c(c4o3)OC(COc3ccc(F)cc3)CO5)nc2s1 (configuration not stated)

## Result
1: 2300; 2: 678

###

# experimentalProtocol: Metabolic stability in human liver microsomes assessed as half life at 1 uM preincubated for 1 hr followed by NADPH addition and measured upto 60 mins by LC-MS/MS analysis
# Assay type: ADME, Microsome
# statedConditions: time < 120 min
half-life at 1 µM under 20 min gets t, anything at or over 20 min gets f.

COc1nn2cc(-c3cc4ccc5c(c4o3)OCO5)nc2s1 :: t

## Task Below 20 min on half-life at 1 µM? Entry COc1nn2cc(-c3cc4ccc5c(c4o3)OCCO5)nc2s1
## Result t

## Task Below 20 min on half-life at 1 µM? Entry COc1nn2cc(-c3cc4c(OCc5nc(N6CCOCC6)sc5C)cc5c(c4o3)OCCO5)nc2s1
## Result t

## Task Below 20 min on half-life at 1 µM? Entry [2H]c1cc2c(c3oc(-c4cn5nc(OC)sc5n4)cc13)OCCO2
## Result t

## Task Below 20 min on half-life at 1 µM? Entry COc1nn2cc(-c3cc4ccc5c(c4o3)OC(COc3ccc(F)cc3)CO5)nc2s1 (stereo not given)
## Result f

## Task Below 20 min on half-life at 1 µM? Entry COc1nn2cc(-c3cc4c(OCCN5CCOCC5)cc5c(c4o3)OCCO5)nc2s1
## Result f
